tested on: A549-CANX-COX4; assay: phenotypically active (imaging signature differs from DMSO and reproducible) at any of 0.3-9 uM (binary (1 = active, 0 = inactive)); higher = active; conditions: treatment time: 24 h
Respond using exactly one of the listed classes: active, inactive

// below: answered compounds
Compound | Class Label
CCOc1ccc2nc(S(N)(=O)=O)sc2c1 [ethoxzolamide] | inactive
Nc1cc(-c2ccncc2)c[nH]c1=O | inactive
CC(C)NCCCC1(C(N)=O)c2ccccc2-c2ccccc21 [indecainide] | inactive
COc1cc2c(cc1OCCCN1CCCC1)N=C(N)C21CCC1 | inactive
CNC1CCC2(C)C(=CCC3C2CCC24CN(C)C(C)C2CCC34)C1 (stereo not given) | active
CCCCc1c(O)n(-c2ccccc2)n(-c2ccccc2)c1=O | inactive

Hi, do you know how Cc1cnc(NC(=O)C2=C(O)c3ccccc3S(=O)(=O)N2C)s1 came out in this test? inactive
